// data source = the supplement of paper PMC5998384

test system: HeLa Kyoto; assay: thermal stability score vs G1/S (z-score of summed log2 fold changes over temperatures); higher = more thermally stable than in G1/S; conditions: cell cycle stage: mitosis
thermal stability score by entry:
// no unit, no text: just the number

Some sequences with known thermal stability score results, for comparison:
Per the reported HeLa Kyoto data, MLSRAVCGTSRQLAPVLGYLGSRQKHSLPDLPYDYGALEPHINAQIMQLHHSKHHAAYVNNLNVTEEKYQEALAKGDVTAQIALQPALKFNGGGHINHSIFWTNLSPNGGGEPKGELLEAIKRDFGSFDKFKEKLTAASVGVQGSGWGWLGFNKERGHLQIAACPNQDPLQGTTGLIPLLGIDVWEHAYYLQYKNVRPDYLKAIWNVINWENVTERYMACKK [SOD2] has thermal stability score of -0.233

Per the reported HeLa Kyoto data, METSAPRAGSQVVATTARHSAAYRADPLRVSSRDKLTEMAASSQGNFEGNFESLDLAEFAKKQPWWRKLFGQESGPSAEKYSVATQLFIGGVTGWCTGFIFQKVGKLAATAVGGGFFLLQLANHTGYIKVDWQRVEKDMKKAKEQLKIRKSNQIPTEVRSKAEEVVSFVKKNVLVTGGFFGGFLLGMAS [FUNDC2] has thermal stability score of -1.68

Now consider the entry below.
Per the reported HeLa Kyoto data, MAEAVLRVARRQLSQRGGSGAPILLRQMFEPVSCTFTYLLGDRESREAVLIDPVLETAPRDAQLIKELGLRLLYAVNTHCHADHITGSGLLRSLLPGCQSVISRLSGAQADLHIEDGDSIRFGRFALETRASPGHTPGCVTFVLNDHSMAFTGDALLIRGCGRTDFQQGCAKTLYHSVHEKIFTLPGDCLIYPAHDYHGFTVSTVEEERTLNPRLTLSCEEFVKIMGNLNLPKPQQIDFAVPANMRCGVQTPTA [ETHE1] has thermal stability score of -1.06

----------
tested on: HeLa Kyoto; experiment: thermal stability score vs G1/S (z-score of summed log2 fold changes over temperatures); higher = more thermally stable than in G1/S; conditions: cell cycle stage: mitosis
endpoint.label: thermal stability score
// no unit, no text: just the number

Reported thermal stability score ( MENQVLTPHVYWAQRHRELYLRVELSDVQNPAISITENVLHFKAQGHGAKGDNVYEFHLEFLDLVKPEPVYKLTQRQVNITVQKKVSQWWERLTKQEKRPLFLAPDFDRWLDESDAEMELRAKEEERLNKLRLESEGSPETLTNLRKGYLFMYNLVQFLGFSWIFVNLTVRFCILGKESFYDTFHTVADMMYFCQMLAVVETINAAIGVTTSPVLPSLIQLLGRNFILFIIFGTMEEMQNKAVVFFVFYLWSAIEIFRYSFYMLTCIDMDWKVLTWLRYTLWIPLYPLGCLAEAVSVIQSIPIFNETGRFSFTLPYPVKIKVRFSFFLQIYLIMIFLGLYINFRHLYKQRRRRYGQKKKKIH [HACD3] ) = -1.3

----------
system: HeLa Kyoto; assay: solubility change mitosis vs G1/S (difference of NP-40 vs SDS log2 ratios) (log2 ratio difference); higher = more soluble in mitosis
solubility change mitosis (log2) by entry:

Reported solubility change mitosis (log2) ( MLLLAAAFLVAFVLLLYMVSPLISPKPLALPGAHVVVTGGSSGIGKCIAIECYKQGAFITLVARNEDKLLQAKKEIEMHSINDKQVVLCISVDVSQDYNQVENVIKQAQEKLGPVDMLVNCAGMAVSGKFEDLEVSTFERLMSINYLGSVYPSRAVITTMKERRVGRIVFVSSQAGQLGLFGFTAYSASKFAIRGLAEALQMEVKPYNVYITVAYPPDTDTPGFAEENRTKPLETRLISETTSVCKPEQVAKQIVKDAIQGNFNSSLGSDGYMLSALTCGMAPVTSITEGLQQVVTMGLFRTIALFYLGSFDSIVRRCMMQREKSENADKTA [KDSR] ) = -0.0925

Now consider the entry below.
Reported solubility change mitosis (log2) ( MFSFNMFDHPIPRVFQNRFSTQYRCFSVSMLAGPNDRSDVEKGGKIIMPPSALDQLSRLNITYPMLFKLTNKNSDRMTHCGVLEFVADEGICYLPHWMMQNLLLEEGGLVQVESVNLQVATYSKFQPQSPDFLDITNPKAVLENALRNFACLTTGDVIAINYNEKIYELRVMETKPDKAVSIIECDMNVDFDAPLGYKEPERQVQHEESTEGEADHSGYAGELGFRAFSGSGNRLDGKKKGVEPSPSPIKPGDIKRGIPNYEFKLGKITFIRNSRPLVKKVEEDEAGGRFVAFSGEGQSLRKKGRKP [UFD1L] ) = -0.123

----------
test system: HeLa Kyoto; test: thermal stability score vs G1/S (z-score of summed log2 fold changes over temperatures); higher = more thermally stable than in G1/S; conditions: cell cycle stage: mitosis
endpoint.label: thermal stability score
// no unit, no text: just the number

Per the reported HeLa Kyoto data, MAGAAEDARALFRAGVCAALEAWPALQIAVENGFGGVHSQEKAKWLGGAVEDYFMRNADLELDEVEDFLGELLTNEFDTVVEDGSLPQVSQQLQTMFHHFQRGDGAALREMASCITQRKCKVTATALKTARETDEDEDDVDSVEEMEVTATNDGAATDGVCPQPEPSDPDAQTIKEEDIVEDGWTIVRRKK [TSR2] has thermal stability score of 0.659

Per the reported HeLa Kyoto data, MTGLYELVWRVLHALLCLHRTLTSWLRVRFGTWNWIWRRCCRAASAAVLAPLGFTLRKPPAVGRNRRHHRHPRGGSCLAAAHHRMRWRADGRSLEKLPVHMGLVITEVEQEPSFSDIASLVVWCMAVGISYISVYDHQGIFKRNNSRLMDEILKQQQELLGLDCSKYSPEFANSNDKDDQVLNCHLAVKVLSPEDGKADIVRAAQDFCQLVAQKQKRPTDLDVDTLASLLSSNGCPDPDLVLKFGPVDSTLGFLPWHIRLTEIVSLPSHLNISYEDFFSALRQYAACEQRLGK [NUS1] has thermal stability score of 0.124

Next:
Per the reported HeLa Kyoto data, MFSFNMFDHPIPRVFQNRFSTQYRCFSVSMLAGPNDRSDVEKGGKIIMPPSALDQLSRLNITYPMLFKLTNKNSDRMTHCGVLEFVADEGICYLPHWMMQNLLLEEGGLVQVESVNLQVATYSKFQPQSPDFLDITNPKAVLENALRNFACLTTGDVIAINYNEKIYELRVMETKPDKAVSIIECDMNVDFDAPLGYKEPERQVQHEESTEGEADHSGYAGELGFRAFSGSGNRLDGKKKGVEPSPSPIKPGDIKRGIPNYEFKLGKITFIRNSRPLVKKVEEDEAGGRFVAFSGEGQSLRKKGRKP [UFD1L] has thermal stability score of -0.639

----------
test system: HeLa Kyoto; assay: melting temperature (median over replicates), in situ; higher = more thermally stable; details: cell cycle stage: G1/S
endpoint.label: melting temperature (°C)
Just the number please, in °C, no unit attached.

Reported melting temperature ( MASRGRRPEHGGPPELFYDETEARKYVRNSRMIDIQTRMAGRALELLYLPENKPCYLLDIGCGTGLSGSYLSDEGHYWVGLDISPAMLDEAVDREIEGDLLLGDMGQGIPFKPGTFDGCISISAVQWLCNANKKSENPAKRLYCFFASLFSVLVRGSRAVLQLYPENSEQLELITTQATKAGFSGGMVVDYPNSAKAKKFYLCLFSGPSTFIPEGLSENQDEVEPRESVFTNERFPLRMSRRGMVRKSRAWVLEKKERHRRQGREVRPDTQYTGRKRKPRF [WBSCR22] ) = 52.9

Reported melting temperature ( MEKIPVSAFLLLVALSYTLARDTTVKPGAKKDTKDSRPKLPQTLSRGWGDQLIWTQTYEEALYKSKTSNKPLMIIHHLDECPHSQALKKVFAENKEIQKLAEQFVLLNLVYETTDKHLSPDGQYVPRIMFVDPSLTVRADITGRYSNRLYAYEPADTALLLDNMKKALKLLKTEL [AGR2] ) = 53.8

Now consider the entry below.
Reported melting temperature ( MAARGRRAEPQGREAPGPAGGGGGGSRWAESGSGTSPESGDEEVSGAGSSPVSGGVNLFANDGSFLELFKRKMEEEQRQRQEEPPPGPQRPDQSAAAAGPGDPKRKGGPGSTLSFVGKRRGGNKLALKTGIVAKKQKTEDEVLTSKGDAWAKYMAEVKKYKAHQCGDDDKTRPLVK [C19ORF43] ) = 54.8

----------
tested on: HeLa Kyoto; assay: solubility change mitosis vs G1/S (difference of NP-40 vs SDS log2 ratios) (log2 ratio difference); higher = more soluble in mitosis
endpoint.label: solubility change mitosis (log2)

Reported solubility change mitosis (log2) ( MEQPWPPPGPWSLPRAEGEAEEESDFDVFPSSPRCPQLPGGGAQMYSHGIELACQKQKEFVKSSVACKWNLAEAQQKLGSLALHNSESLDQEHAKAQTAVSELRQREEEWRQKEEALVQREKMCLWSTDAISKDVFNKSFINQDKRKDTEDEDKSESFMQKYEQKIRHFGMLSRWDDSQRFLSDHPYLVCEETAKYLILWCFHLEAEKKGALMEQIAHQAVVMQFIMEMAKNCNVDPRGCFRLFFQKAKAEEEGYFEAFKNELEAFKSRVRLYSQSQSFQPMTVQNHVPHSGVGSIGLLESLPQNPDYLQYSISTALCSLNSVVHKEDDEPKMMDTV [CDC37L1] ) = -0.0113

Next:
Reported solubility change mitosis (log2) ( MGLCKCPKRKVTNLFCFEHRVNVCEHCLVANHAKCIVQSYLQWLQDSDYNPNCRLCNIPLASRETTRLVCYDLFHWACLNERAAQLPRNTAPAGYQCPSCNGPIFPPTNLAGPVASALREKLATVNWARAGLGLPLIDEVVSPEPEPLNTSDFSDWSSFNASSTPGPEEVDSASAAPAFYSQAPRPPASPGRPEQHTVIHMGNPEPLTHAPRKVYDTRDDDRTPGLHGDCDDDKYRRRPALGWLARLLRSRAGSRKRPLTLLQRAGLLLLLGLLGFLALLALMSRLGRAAADSDPNLDPLMNPHIRVGPS [ZFPL1] ) = -0.0676

Reported solubility change mitosis (log2) ( MSGESARSLGKGSAPPGPVPEGSIRIYSMRFCPFAERTRLVLKAKGIRHEVININLKNKPEWFFKKNPFGLVPVLENSQGQLIYESAITCEYLDEAYPGKKLLPDDPYEKACQKMILELFSKVPSLVGSFIRSQNKEDYAGLKEEFRKEFTKLEEVLTNKKTTFFGGNSISMIDYLIWPWFERLEAMKLNECVDHTPKLKLWMAAMKEDPTVSALLTSEKDWQGFLELYLQNSPEACDYGL [GSTO1] ) = -0.0339

Reported solubility change mitosis (log2) ( MGAQFSKTAAKGEAAAERPGEAAVASSPSKANGQENGHVKVNGDASPAAAESGAKEELQANGSAPAADKEEPAAAGSGAASPSAAEKGEPAAAAAPEAGASPVEKEAPAEGEAAEPGSPTAAEGEAASAASSTSSPKAEDGATPSPSNETPKKKKKRFSFKKSFKLSGFSFKKNKKEAGEGGEAEAPAAEGGKDEAAGGAAAAAAEAGAASGEQAAAPGEEAAAGEEGAAGGDPQEAKPQEAAVAPEKPPASDETKAAEEPSKVEEKKAEEAGASAAACEAPSAAGPGAPPEQEAAPAEEPAAAAASSACAAPSQEAQPECSPEAPPAEAAE [MARCKS] ) = 0.579

Reported solubility change mitosis (log2) ( MAGKKNVLSSLAVYAEDSEPESDGEAGIEAVGSAAEEKGGLVSDAYGEDDFSRLGGDEDGYEEEEDENSRQSEDDDSETEKPEADDPKDNTEAEKRDPQELVASFSERVRNMSPDEIKIPPEPPGRCSNHLQDKIQKLYERKIKEGMDMNYIIQRKKEFRNPSIYEKLIQFCAIDELGTNYPKDMFDPHGWSEDSYYEALAKAQKIEMDKLEKAKKERTKIEFVTGTKKGTTTNATSTTTTTASTAVADAQKRKSKWDSAIPVTTIAQPTILTTTATLPAVVTVTTSASGSKTTVISAVGTIVKKAKQ [SAP30BP] ) = -0.0287

Reported solubility change mitosis (log2) ( MHPAGLAAAAAGTPRLRKWPSKRRIPVSQPGMADPHQLFDDTSSAQSRGYGAQRAPGGLSYPAASPTPHAAFLADPVSNMAMAYGSSLAAQGKELVDKNIDRFIPITKLKYYFAVDTMYVGRKLGLLFFPYLHQDWEVQYQQDTPVAPRFDVNAPDLYIPAMAFITYVLVAGLALGTQDRFSPDLLGLQASSALAWLTLEVLAILLSLYLVTVNTDLTTIDLVAFLGYKYVGMIGGVLMGLLFGKIGYYLVLGWCCVAIFVFMIRTLRLKILADAAAEGVPVRGARNQLRMYLTMAVAAAQPMLMYWLTFHLVR [YIF1B] ) = -0.373
